Origin of measurements: patent US9175282B2

tested on: cellobiose 2-epimerase; assay: Effect of metal ions on the epimerase activity; format: biochemical, Caldicellusiruptor saccharolyticus ATCC43494; settings: metal salt 1 mM; None = 100
Would you kindly list Relative activity (%) for each of these compounds?
// return numeric value only (unit: %, not printed)

Need Relative activity (%), item `[Cl][Fe]([Cl])[Cl]`
33

Here is the next compound: `[Ca+2].[Cl-].[Cl-]`
107

Further, for `[Ba+2].[Cl-].[Cl-]` ?
108

// repeat for `[Cl][Cu][Cl]` and report
1

Then what about the compound `O=C(O)CN(CCN(CC(=O)O)CC(=O)O)CC(=O)O` ?
99

Another compound to check: `NC(CO)(CO)CO`
93

Then this compound: `[Cl-].[Cl-].[Sr+2]`
104

Now try `[Cl][Al]([Cl])[Cl]` .
45

# repeat for `[Cl][Hg][Cl]`
1

Same question for `[Cl-].[Cl-].[Mg+2]` please.
106

Again, but for `[Cl-].[Cl-].[Zn+2]`
1

----------
tested on: recombinant cellobiose 2-epimerase; assay: Substrate specificity of cellobiose 2-epimerase by TLC; assay type: biochemical, Caldicellulosiruptor saccharolyticus ATCC43494; design: key: −: No product is detected; ±: Some products are slightly detected; +: Some products are detected; ++: Some products are clearly detected; settings: 2% (w/w) substrate, MOPS buffer pH 8.0, 500 units/g-substrate, 60° C., 24 hours; product spot on TLC
assay readout: Action

O=C[C@H](O)[C@@H](O)[C@H](O)CO : −
OC[C@H]1O[C@H](OC[C@H]2O[C@H](O)[C@H](O)[C@@H](O)[C@@H]2O)[C@H](O)[C@@H](O)[C@H]1O : −
N[C@H]1C(O)O[C@H](CO)[C@H](O)[C@@H]1O (stereo partly drawn) : −
